Provide the recorded pEC50 for the entries that follow.
target_under_test: hTP (Homo sapiens, UniProt P21731)
Construct: expressed in transfected cells; host or cells: HEK-293 (EBNA)
Sequence (P21731 1-343): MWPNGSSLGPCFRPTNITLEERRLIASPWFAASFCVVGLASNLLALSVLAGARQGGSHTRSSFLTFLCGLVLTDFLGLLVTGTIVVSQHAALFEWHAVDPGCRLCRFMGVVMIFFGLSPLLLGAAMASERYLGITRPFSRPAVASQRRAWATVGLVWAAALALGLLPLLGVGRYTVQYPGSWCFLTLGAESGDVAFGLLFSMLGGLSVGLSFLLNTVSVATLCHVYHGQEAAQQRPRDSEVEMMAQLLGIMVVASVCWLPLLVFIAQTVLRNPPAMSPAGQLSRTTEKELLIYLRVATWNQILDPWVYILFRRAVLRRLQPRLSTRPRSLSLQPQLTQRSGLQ
method_summary: FLIPR calcium signal, hTP
Format: cell-based
condition_summary: HEK-293 (EBNA) cells, read-out: FUNCTIONAL EC50 HTP
pEC50: −log10 of the molar value.

Which pEC50 is listed for CC(O)(/C=C/[C@H]1CCC(=O)[C@@H]1SCCCSCC(=O)O)CCc1ccc2ccccc2c1 (single isomer, unassigned) [drawing 33] ? < 5.00

Which pEC50 is listed for O=C(O)CSCCCS[C@H]1C(=O)CC[C@@H]1/C=C/C(O)CCc1ccc2ccccc2c1 (single isomer, unassigned) [Compound 153] ? < 5.00

Which pEC50 is listed for O=C(O)CSCCCS[C@H]1C(=O)CC[C@@H]1/C=C/C(O)CCc1cc2ccccc2s1 (stereo partly drawn) [drawing 25] ? < 5.00

Which pEC50 is listed for O=C(O)CSCCCS[C@H]1C(=O)CC[C@@H]1/C=C/C(O)Cc1csc2ccccc12 (single isomer, unassigned) [drawing 56] ? < 5.00

Which pEC50 is listed for O=C(O)CSCCCS[C@H]1C(=O)CC[C@@H]1/C=C/C(O)Cc1ccc2ccccc2c1 (stereo partly drawn) ? < 5.00

Which pEC50 is listed for CC(O)(/C=C/[C@H]1CCC(=O)[C@@H]1SCCCSCC(=O)O)CCc1ccc2ccccc2c1 (single isomer, unassigned) [drawing 24] ? < 5.00

Which pEC50 is listed for COC(=O)CSCCCS[C@H]1C(=O)CC[C@@H]1/C=C/C(O)Cc1ccccc1 (single isomer, unassigned) [drawing 46] ? < 5.00

Which pEC50 is listed for O=C(O)CSCCCS[C@H]1C(=O)CC[C@@H]1/C=C/C(O)Cc1csc2ccccc12 (single isomer, unassigned) [drawing 55] ? 8.43

Which pEC50 is listed for O=C(O)CSCCCS[C@H]1C(=O)CC[C@@H]1/C=C/C(O)Cc1ccccc1 (single isomer, unassigned) [drawing 48] ? < 5.00

----------
target_under_test: UniProt P43116
Sequence (P43116 whole entry): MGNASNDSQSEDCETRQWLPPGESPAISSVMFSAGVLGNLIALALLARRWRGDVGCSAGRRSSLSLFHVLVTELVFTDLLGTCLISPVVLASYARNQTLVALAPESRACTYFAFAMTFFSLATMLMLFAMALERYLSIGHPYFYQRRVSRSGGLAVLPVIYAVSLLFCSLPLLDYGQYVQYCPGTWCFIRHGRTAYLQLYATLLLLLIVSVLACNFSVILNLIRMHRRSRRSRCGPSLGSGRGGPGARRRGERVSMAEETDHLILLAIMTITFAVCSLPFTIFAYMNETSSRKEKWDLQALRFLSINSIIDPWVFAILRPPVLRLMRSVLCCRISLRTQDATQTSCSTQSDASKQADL
measured_endpoint: IC50

Item O=C(O)CSCCCS[C@H]1C(=O)CC[C@@H]1/C=C/C(O)CCc1ccc2ccccc2c1 (single isomer, unassigned) [Compound 153] with UniProt P43116 - IC50? > 10 µM

Item O=C(O)CSCCCS[C@H]1C(=O)CC[C@@H]1/C=C/C(O)CCc1ccc2ccccc2c1 (single isomer, unassigned) [drawing 36] with UniProt P43116 - IC50? 8.1 µM

Item O=C(O)CSCCCS[C@H]1C(=O)CC[C@@H]1/C=C/C(O)CCc1cc2ccccc2s1 (stereo partly drawn) [drawing 25] with UniProt P43116 - IC50? > 10 µM

Provenance of the data: patent US7183324B2
